Data credit: patent US10407446B2

Target: TTK (Homo sapiens (Human), UniProt P33981)
Sequence (P33981 whole entry): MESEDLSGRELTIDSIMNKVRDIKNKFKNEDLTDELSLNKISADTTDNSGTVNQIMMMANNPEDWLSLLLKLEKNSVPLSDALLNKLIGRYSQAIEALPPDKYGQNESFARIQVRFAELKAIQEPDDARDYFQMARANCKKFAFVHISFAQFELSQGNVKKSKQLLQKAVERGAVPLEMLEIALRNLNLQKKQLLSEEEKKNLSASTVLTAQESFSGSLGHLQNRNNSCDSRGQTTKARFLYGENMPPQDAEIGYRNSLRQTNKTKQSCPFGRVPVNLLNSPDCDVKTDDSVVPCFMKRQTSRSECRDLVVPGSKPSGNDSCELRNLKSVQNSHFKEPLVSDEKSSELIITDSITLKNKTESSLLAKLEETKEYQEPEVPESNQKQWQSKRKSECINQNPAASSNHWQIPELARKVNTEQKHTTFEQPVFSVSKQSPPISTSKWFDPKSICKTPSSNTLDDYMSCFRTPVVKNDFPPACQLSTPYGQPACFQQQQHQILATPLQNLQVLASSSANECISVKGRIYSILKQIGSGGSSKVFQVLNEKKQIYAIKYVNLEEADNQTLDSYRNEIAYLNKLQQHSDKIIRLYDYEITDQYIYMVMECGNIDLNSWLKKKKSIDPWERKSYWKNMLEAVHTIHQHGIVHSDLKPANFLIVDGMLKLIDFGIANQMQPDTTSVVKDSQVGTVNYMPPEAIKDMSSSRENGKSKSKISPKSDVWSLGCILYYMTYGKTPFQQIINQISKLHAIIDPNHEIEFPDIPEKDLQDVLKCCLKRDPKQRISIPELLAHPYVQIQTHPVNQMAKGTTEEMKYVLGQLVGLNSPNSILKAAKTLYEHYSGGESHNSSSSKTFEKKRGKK
Assay: TTK enzyme assay (LanthaScreen Eu Kinase Binding assay)
Conditions: mean of at least 2 experiments
QUANTITY_NAME: TTK enz pIC50
One number for each entry.

Cc1cc2ncnn2cc1Nc1ncc2c(n1)n([C@]1(C)CC[C@H](O)CC1)c(=O)n2C: 5.8
Cc1cc2ncnn2cc1Nc1ncc2c(n1)n([C@@H]1CCCOC1)c(=O)n2C: 5.2
Cc1cc2ncnn2cc1Nc1ncc2c(n1)n([C@H]1CCCOC1)c(=O)n2C: 5.2
CO[C@H]1CC[C@H](n2c(=O)n(C)c3cnc(Nc4cn5ncnc5cc4C)nc32)CC1: 5.9
Cc1cc2ncnn2cc1Nc1ncc2c(n1)n([C@H]1CC[C@@H](O)CC1)c(=O)n2C: 6.1

Fill in TTK enz pIC50 for each of the 4 compounds listed.
1. Cc1cc2ncnn2cc1Nc1ncc2c(n1)n([C@H]1CC[C@H](O)CC1)c(=O)n2C
2. Cc1nc2cc(C)c(Nc3ncc4c(n3)n(C3CCOCC3)c(=O)n4C)cn2n1
3. CO[C@H]1CC[C@@H](n2c(=O)n(C)c3cnc(Nc4cn5ncnc5cc4C)nc32)CC1
4. Cc1cc2ncnn2cc1Nc1ncc2c(n1)n(C1CCCCC1)c(=O)n2C

1: 5.5; 2: 5.1; 3: 5.3; 4: 6.3
